ASSAY PROTOCOL: cytotoxicity assay (MTT, CC50)
Assay type: cell-based
CONDITION DESCRIPTION: human, HepDE19 cells
This section presents compounds with their documented CC50 values.

Some entries whose results are on file:
Cc1nc2cc(NC(=O)c3ccc(S(=O)(=O)N(C)Cc4ccccc4)cc3)ccc2s1; 3 µM
CN1CCN(c2ccc(CNC(=O)CN(c3cc(C(F)(F)F)ccc3Cl)S(=O)(=O)c3ccccc3)cc2)CC1; 49.5 µM
O=C(CN(c1cc(C(F)(F)F)ccc1Cl)S(=O)(=O)c1ccc(Cl)cc1)NCc1ccncc1; > 50 µM
O=C(CN(c1cc(C(F)(F)F)ccc1Cl)S(=O)(=O)c1ccccc1)NCc1cccnc1; > 50 µM
Cc1ccc(S(=O)(=O)N(CC(=O)NCc2ccncc2)c2cc(C(F)(F)F)ccc2Cl)cc1; > 50 µM
C[N+]1(C)CCC(CNC(=O)CN(c2cc(C(F)(F)F)ccc2Cl)S(=O)(=O)c2ccccc2)CC1; > 50 µM
O=C(CN(c1cc(C(F)(F)F)ccc1Cl)S(=O)(=O)c1ccc(C(F)(F)F)cc1Cl)NCc1ccncc1; 30.2 µM

Next item in the queue.
Hello, please tell me recorded CC50 for this one: O=C(CN(c1cc(C(F)(F)F)ccc1Br)S(=O)(=O)c1ccccc1)NCc1ccncc1
> 50 µM

====

This section presents compounds with their documented CC50 values.
ASSAY PROTOCOL: cytotoxicity assay (MTT, CC50)
Assay type: cell-based
CONDITION DESCRIPTION: human, HepDE19 cells

Some entries whose results are on file:
CN(Cc1ccccc1)S(=O)(=O)c1ccc(C(=O)NCc2ccncc2)cc1; > 50 µM
CC(C)(C)OC(=O)N1CCC(CNC(=O)CN(c2cc(C(F)(F)F)ccc2Cl)S(=O)(=O)c2ccccc2)CC1; 19.1 µM
Cc1nc2cc(NC(=O)CN(c3cc(C(F)(F)F)ccc3Cl)S(=O)(=O)c3ccccc3)ccc2s1; > 50 µM

Hello, please tell me recorded CC50 for this one: CN1CCN(c2cccc(CNC(=O)CN(c3cc(C(F)(F)F)ccc3Cl)S(=O)(=O)c3ccccc3)c2)CC1
38.7 µM

Hello, please tell me recorded CC50 for this one: COc1ccc(S(=O)(=O)N(CC(=O)NCc2ccncc2)c2cc(C(F)(F)F)ccc2Cl)cc1
49.2 µM

Hello, please tell me recorded CC50 for this one: O=C(CN(c1cc(C(F)(F)F)ccc1Cl)S(=O)(=O)c1ccc(C(F)(F)F)cc1)NCc1ccncc1
> 50 µM

Hello, please tell me recorded CC50 for this one: Cc1cc2cc(NC(=O)c3ccc(S(=O)(=O)N(C)Cc4ccccc4)cc3)ccc2[nH]1
> 50 µM

Hello, please tell me recorded CC50 for this one: CN1CCC(CNC(=O)CN(c2cc(C(F)(F)F)ccc2Cl)S(=O)(=O)c2ccccc2)CC1
> 50 µM

Hello, please tell me recorded CC50 for this one: O=C(CN(c1cc(C(F)(F)F)ccc1Cl)S(=O)(=O)c1ccccc1)NCc1ccncn1
> 50 µM

====

This section presents molecules with their documented CC50 values.
ASSAY PROTOCOL: cytotoxicity assay (MTT, CC50)
Type: cell-based
CONDITION DESCRIPTION: human, HepDE19 cells

Hello, please tell me recorded CC50 for this one: Cc1nc2ccc(NC(=O)c3ccc(S(=O)(=O)N(C)Cc4ccccc4)cc3)cc2s1 [IHVR-13006]
5.9 µM
